- Procedure text: qHTS for induction of synthetic lethality in tumor cells producing 2HG: qHTS for the HT-1080-IDH1KD cell line;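 also: 0% = DMSO wells and -100% = cell-free medium wells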
- Condition summary: HT-1080 IDH1 knockdown viability, ATP luminescence, 48 h; series mostly up to 46.1 µM
Among all 360,000 compounds or so, about 7,500 (2.1%) were called active. Not shown: some 8% with an inconclusive outcome. Calls follow the shape of the dose curve; as a rule, active = well fitted cell-killing curve with a large enough effect; inconclusive = small, poorly fitted or top-dose-only effect, or effect the other way, or another doubt; inactive = no such curve, though single readings can be large or run the other way. For the sample, actives were picked, then their nearest neighbours and some compounds at random.
Outcomes you can answer with include only these: class 1 for active, class 0 for inactive

>  <Compound>
Cc1nn(C)c(C)c1NS(=O)(=O)c1ccc(OC(F)(F)F)cc1

>  <Category>
class 0

$$$$
>  <Compound>
COc1cccc(NC(=O)CN(C)C(=O)c2cc(Cl)nc3ccccc23)c1

>  <Category>
class 0

$$$$

[in] // return assay outcome for `Cc1ccc2nc(N(CCN(C)C)C(=O)C3=COCCO3)sc2c1`
[out] class 0

[in] // return assay outcome for `CC1(C)Cc2cccc(OCC(=O)NCc3ccccc3)c2O1`
[out] class 0
